Answer each item with its documented TGI.
test system: HCT-116 colon; experiment: NCI tumour cell line growth inhibition, 48 h

Incoming: Give the measured TGI of O=[N+]([O-])C(=C(Nc1cccc2cccnc12)Nc1cccc2cccnc12)C(Cl)=C(Cl)Cl .
Outgoing: > 100 µM

Incoming: Also S=c1[nH]c(=S)c2cc3ccccc3nc2[nH]1 ?
Outgoing: > 100 µM

Incoming: Please do the same for O=C1c2ccccc2C(=O)N1n1c(Cc2ccc([N+](=O)[O-])cc2)n[nH]c1=O as well.
Outgoing: > 100 µM

Incoming: Okay, and O=[N+]([O-])C(=C(Nc1ccccc1)Nc1ccccc1)C(Cl)=C(Cl)Cl ?
Outgoing: 25.5 µM

Incoming: What about CC1(C)CC(=O)C(C(CC(c2ccccc2)c2cc3c(cc2O)OCO3)C2=C(O)CC(C)(C)CC2=O)=C(O)C1 (configuration not stated) ?
Outgoing: > 10 µM

Incoming: Same thing, different molecule: O=C(O)COc1ccccc1C(=O)Nc1ccccc1
Outgoing: > 100 µM

Incoming: Another: COc1ccc(N2C(=O)CC(=O)N(NC(=O)C(C)Oc3ccccc3C)C2=S)cc1 (configuration not stated)
Outgoing: > 100 µM

Incoming: Further, for CC1(C)OC2C(CO[Si](C)(C)C(C)(C)C)OC(n3c(I)c(C#C[Si](C)(C)C)c(=O)[nH]c3=O)C2O1 (configuration not stated) ?
Outgoing: 3.37 µM

Incoming: What do we get for COC(=O)C(Cc1ccc2c(c1)CCC2)Cc1ccc2c(c1)CCC2 ?
Outgoing: > 100 µM

Incoming: Item: BrC(=C(c1ccc(OC2CCCCO2)cc1)c1ccc(OC2CCCCO2)cc1)c1ccccc1 (configuration not stated)
Outgoing: > 100 µM

Incoming: Moving on to the next molecule: CC1(C)[C@@H]2CC[C@@]1(C)CN(CCC[N+](C)(C)C)C2
Outgoing: > 100 µM

Incoming: Another molecule to check: CCOC(=O)c1nc2c(OC)nn(O)cc-2c1[N+](=O)[O-]
Outgoing: 38 µM

Incoming: Same thing, different molecule: Cc1c(N(C)C)ccc2c(=O)c3cccc(CC(=O)O)c3oc12
Outgoing: > 100 µM

Incoming: Repeat with CC(=O)NC1C(OCc2ccccc2)OC(CO)C(O)C1OCC(=O)N[C@@H](C)C(=O)N[C@H](CCC(=O)NCCCNc1c2ccccc2nc2cccc([N+](=O)[O-])c12)C(N)=O (some centres not stated)
Outgoing: 0.034 µM

Incoming: Subsequent entry: CC(=O)Nc1ccc(-c2csc(Nc3cccc(-c4csc(C)n4)c3)n2)cc1
Outgoing: > 26.7 µM

Incoming: Same question for Cc1ccc(C2=CC(=O)OC(C[P+](c3ccccc3)(c3ccccc3)c3ccccc3)(c3ccccc3)O2)cc1 (configuration not stated) please.
Outgoing: 29.2 µM

Incoming: And the next one, Clc1cc2c(c(CSc3nc4ccccc4n4cccc34)c1)OCOC2 ?
Outgoing: > 100 µM

Incoming: For O=C(/C(=C/c1ccc(Cl)cc1)c1ccccc1)c1ccccc1 then?
Outgoing: 27.1 µM

Incoming: C/C(C[n+]1ccccc1)=N\N=C(N)N ?
Outgoing: > 100 µM

Incoming: Queued: COc1cc2c(cc1OC)C1C3CCCCC3CCN1CC2 (configuration not stated)
Outgoing: > 100 µM

Incoming: Then this molecule: CC(C)SC(=S)Sc1c(Cl)c(Cl)nc(Cl)c1Cl
Outgoing: 22.4 µM

Incoming: Also Nc1ncn([C@@H]2O[C@H](CO)[C@@H](O)[C@H]2O)c(=O)n1 , if possible.
Outgoing: 1.71 µM

Incoming: Likewise for CCN(CC)CCNc1nc(N)c(C#N)c(C#N)c1C#N ?
Outgoing: > 10 µM

Incoming: Try COC(=O)/C=C\C(C#N)(C#N)N=Cc1ccc(C)cc1 next.
Outgoing: 3.57 µM

Incoming: What do you have for COc1ccc(OCC(=O)O)c2c1CCCC2=O ?
Outgoing: > 100 µM

Incoming: What would you report for CC(C)(C)[Si](C)(C)OCC1OC(n2ccc(=O)[nH]c2=O)C(O[Si](C)(C)C(C)(C)C)/C1=C/C#N (configuration not stated) ?
Outgoing: > 53.2 µM

Incoming: What do you get for C=C1C(=O)CC2C1CC(=O)/C(C)=C/CCC(C)(O)C2O (configuration not stated) ?
Outgoing: 6.92 µM

Incoming: Request: CC(C)(/C=C(\C#N)C(=O)N1CCC[C@@H](n2nc(-c3ccc(Oc4ccccc4)cc3F)c3c(N)ncnc32)C1)N1CCN(C2COC2)CC1
Outgoing: 20.1 µM

Incoming: Now consider CC12CCC(=O)C[C@H]1CCC(OC=O)C2Br (some centres not stated) .
Outgoing: > 100 µM

Incoming: Here is the next molecule: CCC[CH2][Sn]([CH2]CCC)([O]C(=O)c1ccc(OC)c(OC)c1OC)[O][Sn]([CH2]CCC)([CH2]CCC)[O]C(=O)c1ccc(OC)c(OC)c1OC
Outgoing: 0.833 µM

Incoming: Proceed to COC(=O)/C(=N\NC(N)=S)C(C(=O)OC)C(=O)C(=O)Nc1ccc(C)cc1 (configuration not stated)
Outgoing: > 100 µM

Incoming: Record: Cc1c(O)nc(-n2[nH]c3c(c2=O)CCCC3)[nH]c1=O
Outgoing: > 100 µM

Incoming: Now give it for CCNC(=S)NNC(=O)C12CC3CC(CC(C3)C1)C2 too.
Outgoing: > 100 µM

Incoming: Also, Cc1nc(Nc2cccnc2)sc1C(=O)/C=C/c1ccc(F)cc1 please.
Outgoing: 4.18 µM

Incoming: Another molecule: COc1cnc2c(c1)C(=O)c1c-2n(CCCN2CCOCC2)c(=O)c2cc(Cl)ccc12
Outgoing: > 100 µM

Incoming: Subsequent entry: CN(C)C1CCN(C(=O)c2ccc(NC(=O)Nc3ccc(-c4nc(N5CCOCC5)c5cccn5n4)cc3)cc2)CC1
Outgoing: 20 µM

Incoming: Same question for COC(=O)C1CCCC2(C1)OCCO2 (configuration not stated) please.
Outgoing: > 100 µM

Incoming: Repeat with CC1CC2CCCC(O)=C2C(=O)O1 (configuration not stated)
Outgoing: > 100 µM

Incoming: Now consider COc1ccc(C2OC(c3ccncc3)=NN2C)cc1F (configuration not stated) .
Outgoing: > 100 µM

Incoming: Next up: CCCNc1ncnc2c1ncn2C
Outgoing: > 100 µM

Incoming: What about O=C(NC[C@H](O)CN1CCc2ccccc2C1)c1cc(NC2COC2)ncn1 ?
Outgoing: > 100 µM

Incoming: Do the same for NNC(=O)CNc1cccc(Br)c1 please
Outgoing: > 100 µM
